Kindly state TGI for each of the entries shown.
System: DU-145 prostate
Experimental Details: NCI tumour cell line growth inhibition, 48 h
I only need the number, in µM, no unit after it.

Please state recorded TGI (tested on DU-145 prostate) of O=C1C(Cl)=C(N2CCOCC2)C(=O)c2ccccc21
31.9

Please state recorded TGI (tested on DU-145 prostate) of NC(=O)C1=C(c2ccccc2)c2ccccc2C1=O
31.3

Please state recorded TGI (tested on DU-145 prostate) of COc1cccc(/C=C/C(=O)c2cc3c(N)c(C(=O)Nc4cccc(Cl)c4C)sc3nc2C)c1
3.98

Please state recorded TGI (tested on DU-145 prostate) of COc1cccc2c1C(=O)c1ccc3cc(CO)cc(O)c3c1C2=O
3.31

Please state recorded TGI (tested on DU-145 prostate) of Cc1cc2nc3c(C(O)CO)nn(-c4ccccc4)c3nc2cc1C (stereo unspecified)
33.1

###

System: OVCAR-8 ovarian
Experimental Details: NCI tumour cell line growth inhibition, 48 h; in the data active = GI50 below about 0.43 µM; inactive = the rest
Answer with one of the outcomes active, inactive

Entry Fc1ccc(-c2nnc3sc(-c4cccc(Cl)c4)nn23)cc1Cl : call = ?
inactive

Entry Cc1nn2c(/C=C3/C(=O)Nc4ccccc43)c(-c3ccc(Cl)cc3)nc2s1 : call = ?
inactive

Entry N#CSCC1CC(O)(c2ccccc2)C(c2ccccc2)C(c2ccc(F)cc2)O1 (configuration not stated) : call = ?
inactive

Entry CC1(C)N=C(N)N=C(N)N1c1cccc(CCCCc2ccc(S(=O)(=O)F)cc2Cl)c1 : call = ?
inactive

Entry c1ccc2[nH]c(-c3ccc(OCCCCCOc4ccc(-c5nc6ccccc6[nH]5)cc4)cc3)nc2c1 : call = ?
inactive

Entry CCc1ccc(CCC(=O)Nc2ncc(Cc3ccccc3)s2)o1 : call = ?
inactive

Entry COc1cc(-c2cn(-c3ccc(Cl)cc3)c(=O)[nH]2)cc(OC)c1OC : call = ?
inactive

Entry Cn1c2ccccc2c2nnc(N/N=C/c3ccccn3)nc21 : call = ?
active

Entry COc1cc2cnc3c(c2cc1OC)Cc1cc2c(cc1-3)OCO2 : call = ?
active

Entry COc1ccc(C(=O)/C=C/c2cc(C(=O)c3cc(OC)c(OC)c(OC)c3)ccc2OC)cc1 : call = ?
inactive

Entry CN(C)CC#Cc1cccc(C(=O)c2cnn(-c3ccc(F)cc3)c2N)c1 : call = ?
inactive

Entry O=C(Nc1ccc(Nc2ccncc2)cc1)c1ccc(Nc2ccnc3ccc([N+](=O)[O-])cc23)cc1 : call = ?
inactive

Entry c1cncc(CNc2ccccc2-c2nnc(Nc3ccc4c(c3)OCCO4)o2)c1 : call = ?
inactive

Entry CCC(C)/C=C(C)/C=C/C(=O)c1c(O)c(-c2ccc(O)cc2)c[nH]c1=O (configuration not stated) : call = ?
inactive

Entry CCCCC(=O)[O-].N.N.N.N.N.[Co+3].[O-][Cl+3]([O-])([O-])[O-] : call = ?
inactive

Entry COc1ccc(C(=O)c2cc(OC)c(OC)c(OC)c2)cc1O : call = ?
active

Entry COc1cc(-c2cc(-c3nc4ccccc4[nH]3)[nH]n2)cc(OC)c1OC : call = ?
inactive

###

System: TK-10 renal
Experimental Details: NCI tumour cell line growth inhibition, 48 h; in the data active means GI50 below about 0.43 µM; inactive means the rest
*1 amine or outer side, *2 acyl side, *3 side chain or, on linkers, in order; H or OH if unused. Where a SMILES comes first, the peptide text is derived from it. Bridges are numbered along the chain shown (N, C = ends). [ ]: non-standard residue; d: D form. The star is where a group is joined. Phe(3-Me) = Cc1cccc(C[C@H](N)C(=O)O)c1; NH(4-Cl-2-F-phenyl) = Fc1cc(Cl)ccc1N*; Pro(4R-Me) = C[C@H]1CN[C@H](C(=O)O)C1; Hyp = O=C(O)[C@@H]1C[C@@H](O)CN1; aThr = C[C@H](O)[C@H](N)C(=O)O; Pip = O=C(O)[C@@H]1CCCCN1; CO = O=C([*:1])[*:2]
Answer with one of the outcomes active, inactive

Entry COc1cc(-c2cc(-c3nc4ccccc4[nH]3)[nH]n2)cc(OC)c1OC : call = ?
inactive

Entry C#CC[C@H](c1nc2cc(Cl)ccc2c(=O)n1Nc1ccccc1)N(CCCN)C(=O)c1cccc(Cl)c1F : call = ?
inactive

Entry C=C(CN1CCN(c2ccccc2F)CC1)c1ccc(C(=O)Nc2ccccc2N)cc1 : call = ?
inactive

Entry Fc1ccc(-c2nnc3sc(-c4cccc(Cl)c4)nn23)cc1Cl : call = ?
inactive

Entry COc1ccc(C2=C(c3cn(C)c4ccccc34)C(=O)NC2=O)cc1OC : call = ?
inactive

Entry NC1CCC[C@@H](O)[C@H]1O (stereo not given in full) : call = ?
inactive

Entry CN(C)CC#Cc1cccc(C(=O)c2cnn(-c3ccc(F)cc3)c2N)c1 : call = ?
inactive

Entry O=c1[nH]nc2c3c(cccc13)NC(CN1Cc3ccccc3C1)=N2 : call = ?
inactive

Entry O=C(c1cc(-c2cc3c(cc2C(=O)N2Cc4ccccc4C[C@H]2CN2CCOCC2)OCO3)n2c1CCCC2)N(c1ccccc1)c1ccc(O)cc1 : call = ?
inactive

Entry Cc1nn2c(/C=C3/C(=O)Nc4ccc(Cl)cc43)c(-c3ccccc3)nc2s1 : call = ?
inactive

Entry c1cncc(CNc2ccccc2-c2nnc(Nc3ccc4c(c3)OCCO4)o2)c1 : call = ?
inactive

Entry Cc1cc(N/N=C/c2nc(-c3ccccc3)oc2C)c2cc(Cl)ccc2n1 : call = ?
inactive

Entry Cl.Fc1c[c-]c(-c2ccccn2)c(F)c1.[Pt].c1ccc([PH+](CC[PH+](c2ccccc2)c2ccccc2)c2ccccc2)cc1 : call = ?
active

Entry CCOc1cc2ncc(C#N)c(Nc3ccc(F)c(Cl)c3)c2cc1NC(=O)/C=C/CN(C)C : call = ?
active

Entry Cc1cccc(C[C@H](NC(=O)Nc2ccc(Cl)cc2F)C(=O)N[C@@H]2C(=O)N3C[C@H](O)C[C@H]3C(=O)N3CCCC[C@H]3C(=O)N[C@@H](C)C(=O)N3C[C@H](C)C[C@H]3C(=O)O[C@H]2C)c1 ({NH(4-Cl-2-F-phenyl)-CO}-[Phe(3-Me)][aThr][Hyp][Pip]A[Pro(4R-Me)]; ester 2-C) : call = ?
inactive
